# target or test system: human KV7.2/KV7.3 (Homo sapiens (Human), UniProt O43525+O43526)
# measurement notes: Potassium flux assay (IPG-2 AM dye)
# conditions: TREX HEK 293 or HEK 293 cells expressing human KV7.2/KV7.3; arithmetic mean values
pEC50: −log10 of the molar value. Structures can show the parent of a compound that is named as a salt.
endpoint label: pEC50

Solved cases below.
compound: CC1(C)CC(COc2ccc3c(Nc4ccc(Cl)nc4)nccc3c2)O1 (stereo not drawn) [Example 209]
result: 5.00 to 6.00

compound: CC#CC(C)(C)COc1ccc2c(Nc3ccc(Cl)nc3)nccc2c1 [Example 161]
result: 5.00 to 6.00

Look at this compound and give its reported pEC50. O[C@]1(C(F)(F)F)CCC[C@H](Oc2ccc3c(Nc4cnc(Cl)nc4)nccc3c2)C1 (racemic) [Example 145]
> 6.00

Another: Cc1ncc(Nc2nccc3cc(OCC4(C#N)CC(F)(F)C4)ccc23)cn1 [Example 235, formate]
> 6.00

Please answer likewise for Clc1ccc(Nc2nccc3cc(OCCn4cccn4)ccc23)cn1 [Example 120]
4.52 to 5.00
